# Protocol details: Antagonist activity at P2Y12 receptor assessed as inhibition of ADP-induced human platelet aggregation by washed platelet assay
The compounds listed here are annotated with their IC50.
Write the answer as a number in µM, unit excluded.

[
  {
    "Compound": "O=C(Nc1ccccc1)Nc1ncnc2c1ncn2[C@@H]1O[C@H](COP(=O)(O)O)[C@H]2OC(/C=C/c3ccccc3)O[C@H]21 (some centres undefined)",
    "Endpoint value": 0.21
  },
  {
    "Compound": "Nc1ncnc2c1ncn2[C@@H]1O[C@H](COP(=O)(O)O)[C@H]2OC(C#Cc3ccccc3)O[C@H]21 (some centres undefined)",
    "Endpoint value": 57.1
  },
  {
    "Compound": "Nc1ncnc2c1ncn2[C@@H]1O[C@H](COP(=O)(O)OP(=O)(O)OP(=O)(O)OP(=O)(O)OC[C@@H]2O[C@H](n3cnc4c(N)ncnc43)[C@H]3OC(Cc4ccccc4)O[C@H]32)[C@H]2OC(Cc3ccccc3)O[C@H]21 (some centres undefined)",
    "Endpoint value": 11.7
  }
]

Next up:
# get_value(readout='IC50', item= CCNC(=O)Nc1ncnc2c1ncn2[C@@H]1O[C@H](COP(=O)(O)O)[C@H]2OC(Cc3ccccc3)O[C@H]21 (some centres undefined) )
0.041

* * *

# Protocol details: Antagonist activity at P2Y12 receptor assessed as inhibition of ADP-induced human platelet aggregation by washed platelet assay
The entries below come with measured pIC50 values attached.
The read-out pIC50 is expressed as -log10 of concentration in moles per litre.

[
  {
    "Molecule": "O=C(Nc1ccc(F)cc1)Nc1ccn([C@@H]2O[C@H](COP(=O)(O)O)[C@H]3O[C@@H](Cc4ccccc4)O[C@H]32)c(=O)n1",
    "Endpoint value": 4.95
  }
]

Consider the molecule O=C(Nc1ccc(F)cc1)Nc1ccn([C@@H]2O[C@H](COP(=O)(O)OP(=O)(O)OP(=O)(O)OP(=O)(O)OC[C@@H]3O[C@H](n4ccc(=O)[nH]c4=O)[C@H]4O[C@@H](Cc5ccccc5)O[C@H]43)[C@@H](O)[C@H]2O)c(=O)n1 and give its measured pIC50.
4.62

Using the record for CCCCCCNC(=O)Nc1ncnc2c1ncn2[C@@H]1O[C@H](COP(=O)(O)O)[C@H]2OC(Cc3ccccc3)O[C@H]21 (stereo partly specified) , report its pIC50.
7.28

Any idea what its pIC50 is? The molecule is CNc1ccccc1C(=O)O[C@H]1[C@@H](O)[C@H](n2ccc(=O)[nH]c2=O)O[C@@H]1COP(=O)(O)OP(=O)(O)OP(=O)(O)OP(=O)(O)OC[C@@H]1O[C@H](n2ccc(=O)[nH]c2=O)[C@@H](OC(=O)c2ccccc2NC)[C@H]1O
5.12

Any idea what pIC50 was measured for Nc1ncnc2c1ncn2[C@@H]1O[C@H](COP(=O)(O)OP(=O)(O)OP(=O)(O)OP(=O)(O)OC[C@@H]2O[C@H](n3cnc4c(N)ncnc43)[C@@H](O)[C@H]2O)[C@H]2OC(Cc3ccccc3)O[C@H]21 (stereo partly specified) ?
5.18

Requested field: pIC50. Item: O=C(Nc1ccccc1)Nc1ncnc2c1ncn2[C@@H]1O[C@H](COP(=O)(O)O)[C@H]2OC(Cc3ccccc3)O[C@H]21 (stereo partly specified)
6.80

Need pIC50, item Nc1ncnc2c1ncn2[C@@H]1O[C@H](COP(=O)(O)OP(=O)(O)O)[C@H]2O[C@@H](Cc3ccccc3)O[C@H]21
4.64

For the molecule O=c1ccn([C@@H]2O[C@H](COP(=O)(O)OP(=O)(O)OP(=O)(O)OP(=O)(O)OC[C@@H]3O[C@H](n4ccc(=O)[nH]c4=O)[C@@H](O)[C@H]3O)[C@@H]3OC(Cc4ccccc4)O[C@H]32)c(=O)[nH]1 (stereo partly specified) , what pIC50 is on record?
4.57

What pIC50 value was documented for this molecule, O=C(Nc1ccccc1)Nc1ncnc2c1ncn2[C@@H]1O[C@H](COP(=O)(O)OP(=O)(O)OP(=O)(O)OP(=O)(O)OC[C@@H]2O[C@H](n3cnc4c(NC(=O)Nc5ccccc5)ncnc43)[C@H]3O[C@@H](Cc4ccccc4)O[C@H]32)[C@H]2O[C@@H](Cc3ccccc3)O[C@H]21 ?
6.28

What pIC50 value was documented for this molecule, O=c1ccn([C@@H]2O[C@H](COP(=O)(O)OP(=O)(O)OP(=O)(O)OC[C@@H]3O[C@H](n4ccc(=O)[nH]c4=O)[C@@H](O)[C@H]3O)[C@H]3OC(Cc4ccccc4)O[C@H]32)c(=O)[nH]1 (stereo partly specified) ?
4.46

Using the record for CCCCCCNC(=O)Nc1ncnc2c1ncn2[C@@H]1O[C@H](COP(=O)(O)O)[C@H]2OC(C#Cc3ccccc3)O[C@H]21 (stereo partly specified) , report its pIC50.
6.68
